- Assayed target: recombinant human Estrogen Receptor alpha ligand binding domain, residues 307-554 (ER alpha-LBD (GST)) (Homo sapiens, UniProt P03372)
- Construct: made in house
- Assay method text: ERα binding assay (LanthaScreen TR-FRET competition)
- Assay conditions: TR-FRET competition with Fluormone ES2 tracer, 4 hours at room temperature; single experiment or average of two or more
Experimental readout: IC50 (nM)
Enter your answer as a number in nM; do not include the unit.

query: Query: IC50; subject: Cc1ncsc1-c1ccc(CNC(=O)[C@@H]2C[C@@H](O)CN2C(=O)[C@@H](NC(=O)COCCCOCCOc2ccc([C@@H]3c4[nH]c5ccccc5c4C[C@@H](C)N3CC(F)F)nc2)C(C)(C)C)cc1
result: 25

query: Next up: Cc1ncsc1-c1ccc(CNC(=O)[C@@H]2C[C@@H](O)CN2C(=O)[C@@H](NC(=O)CCCCCNCCCCOc2cc(F)c([C@@H]3c4[nH]c5ccccc5c4C[C@@H](C)N3CC(C)(C)F)c(F)c2)C(C)(C)C)cc1
result: 1.1

query: Next up: Cc1ncsc1-c1ccc([C@H](CN(C)C)NC(=O)[C@@H]2C[C@@H](O)CN2C(=O)[C@@H](NC(=O)COCCOCCOCCOc2cc(F)c([C@@H]3c4[nH]c5ccccc5c4C[C@@H](C)N3CC(C)(C)F)c(F)c2)C(C)(C)C)cc1
result: 4.6

Let us examine a further case.
query: Query: IC50; subject: Cc1ncsc1-c1ccc([C@H](C)NC(=O)[C@@H]2C[C@@H](O)CN2C(=O)[C@@H](NC(=O)COCCCCCOCCOc2cc(F)c([C@@H]3c4[nH]c5ccccc5c4C[C@@H](C)N3CC(C)(C)F)c(F)c2)C(C)(C)C)cc1
result: 0.8

---

Listed compounds paired with reported IC50
- Assayed target: recombinant human Estrogen Receptor alpha ligand binding domain, residues 307-554 (ER alpha-LBD (GST)) (Homo sapiens, UniProt P03372)
- Construct: made in house
- Sequence (P03372 307-554): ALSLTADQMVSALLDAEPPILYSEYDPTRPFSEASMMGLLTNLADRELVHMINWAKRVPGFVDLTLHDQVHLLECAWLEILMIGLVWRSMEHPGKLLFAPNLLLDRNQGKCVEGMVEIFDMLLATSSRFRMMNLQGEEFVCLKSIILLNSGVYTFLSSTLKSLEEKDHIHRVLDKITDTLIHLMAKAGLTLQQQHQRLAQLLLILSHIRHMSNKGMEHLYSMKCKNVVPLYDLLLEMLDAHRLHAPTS
- Assay method text: ERα binding assay (LanthaScreen TR-FRET competition)
- Assay conditions: TR-FRET competition with Fluormone ES2 tracer, 4 hours at room temperature; single experiment or average of two or more
Enter your answer as a number in nM; do not include the unit.

query: Query: IC50; subject: Cc1ncsc1-c1ccc(CNC(=O)[C@@H]2C[C@@H](O)CN2C(=O)[C@@H](NC(=O)COCCCCCOc2cc(F)c([C@@H]3c4[nH]c5ccccc5c4C[C@@H](C)N3CC(F)(F)F)c(F)c2)C(C)(C)C)cc1
result: 0.6

query: Next up: Cc1ncsc1-c1ccc([C@H](C)NC(=O)[C@@H]2C[C@@H](O)CN2C(=O)[C@@H](NC(=O)C(F)(F)OCCOCCCCOc2cc(F)c([C@@H]3c4[nH]c5ccccc5c4C[C@@H](C)N3CC(C)(C)F)c(F)c2)C(C)(C)C)cc1
result: 1.5

query: Next up: Cc1ncsc1-c1ccc(CNC(=O)[C@@H]2C[C@@H](O)CN2C(=O)[C@@H](NC(=O)COCC/C=C/CCOc2cc(F)c([C@@H]3c4[nH]c5ccccc5c4C[C@@H](C)N3CC(C)(C)F)c(F)c2)C(C)(C)C)cc1
result: 0.7

query: Next up: Cc1ncsc1-c1ccc(CNC(=O)[C@@H]2C[C@@H](O)CN2C(=O)[C@@H](NC(=O)c2ccc(N3CCN(CCNC(=O)/C=C/c4cc(F)c([C@@H]5c6[nH]c7ccccc7c6C[C@@H](C)N5CC(C)(C)F)c(F)c4)CC3)cc2)C(C)(C)C)cc1
result: 1.1
